The reported measurements were obtained from patent US6861578B1.

# testTarget: cathepsin D (Homo sapiens, UniProt P07339)
# assayName: steady state inhibition of cathepsin D hydrolysis of chromophoric substrate
observationType: Ki (mM)

>>> number("first domain of equistatin (eq d-1) (protein) SLTLCGGLGASAASGLIGTTVPGCLGTGGPGGLGCTGSTGTCTCVAGAGLGILGTLIAGSPACSAAL")
1
